# Target desc: ENL YEATS domain (6×HIS ENL YEATS Domain) binding to H3K9cr peptide (Homo sapiens, UniProt Q03111)
Measurement type: IC50 (nM)

>>> df
                                   molecule  measurement_type  quantitative_readout
0  C[C@H]1CCCN1Cc1cc2cnc(NC(=O)c3ccc4c(N)nn(C5CC5)c4c3)cc2[nH]1 [Example 84]              IC50                   177
1  C[C@H]1CCCN1Cc1cc2cnc(NC(=O)c3ccc4c(N)n[nH]c4c3)cc2[nH]1 [Example 83]              IC50                   168
2  C[C@H]1CCCN1Cc1cc2cnc(NC(=O)c3ccc4[nH]nc(C5CC5)c4c3)cc2[nH]1 [Example 48]              IC50                   140
3  C[C@H]1CCCN1Cc1cc2cnc(NC(=O)c3ccc(-c4cnn(CC#N)c4)cc3)cc2[nH]1 [Example 52]              IC50                   154
4  Cc1nn(C)c2cc(C(=O)Nc3cc4[nH]c(CN5CCC[C@@H]5C)cc4cn3)ccc12 [Example 5]              IC50                   125

###

# Target desc: ENL YEATS domain (6×HIS ENL YEATS Domain) binding to H3K9cr peptide (Homo sapiens)
# Sequence (Q03111 1-150): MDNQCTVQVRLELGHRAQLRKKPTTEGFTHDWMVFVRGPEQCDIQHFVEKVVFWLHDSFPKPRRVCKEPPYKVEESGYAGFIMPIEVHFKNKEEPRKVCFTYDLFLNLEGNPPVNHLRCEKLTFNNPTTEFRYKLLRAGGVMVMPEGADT
Measurement type: IC50 (nM)

In [3]: df
Out[3]:
                                test_smiles                               target_desc  measurement_type  quantitative_readout
0  C[C@H]1CCCN1Cc1cc2cnc(NC(=O)c3ccc(-c4cnn(C(F)F)c4)cc3)cc2[nH]1  ENL YEATS domain (6×HIS ENL YEATS Domain) binding to H3K9cr peptide (Homo sapiens)              IC50                   158
1  C[C@H]1CCCN1Cc1cc2cnc(NC(=O)c3ccc(-c4cnn(C5CC5)c4)cc3)cc2[nH]1  ENL YEATS domain (6×HIS ENL YEATS Domain) binding to H3K9cr peptide (Homo sapiens)              IC50                   151
2  Cc1c2ccc(C(=O)Nc3cc4[nH]c(CN5CCC[C@@H]5C)cc4cn3)cc2nn1C  ENL YEATS domain (6×HIS ENL YEATS Domain) binding to H3K9cr peptide (Homo sapiens)              IC50                   245
3  C[C@H]1CCCN1Cc1cc2cnc(NC(=O)c3ccc4c(N(C)C)nn(C)c4c3)cc2[nH]1  ENL YEATS domain (6×HIS ENL YEATS Domain) binding to H3K9cr peptide (Homo sapiens)              IC50                   209

###

# Target desc: ENL YEATS domain (6×HIS ENL YEATS Domain) binding to H3K9cr peptide (Homo sapiens, UniProt Q03111)
# Sequence (Q03111 1-150): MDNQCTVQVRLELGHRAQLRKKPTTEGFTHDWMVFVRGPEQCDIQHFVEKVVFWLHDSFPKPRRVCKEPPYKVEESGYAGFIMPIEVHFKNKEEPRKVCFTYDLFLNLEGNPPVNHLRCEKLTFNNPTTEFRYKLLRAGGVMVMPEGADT
Measurement type: log10(IC50) (log10 of the value in nM)

                                    compound  measurement_type  quantitative_readout
 0  C[C@H]1CCCN1Cc1cc2cnc(NC(=O)c3ccc(-c4cn(C)nn4)cc3F)cc2[nH]1 [Example 33]       log10(IC50)                  2.62
 1  Cc1cc2cc(C(=O)Nc3cc4[nH]c(CN5CCC[C@@H]5C)cc4cn3)ccc2nn1 [Example 57]       log10(IC50)                  2.43
 2  C[C@H]1CCCN1Cc1cc2cnc(NC(=O)c3ccc(-c4c[nH]cn4)cn3)cc2[nH]1 [Example 76]       log10(IC50)                  3.20
 3  C[C@H]1CCCN1Cc1cc2cnc(NC(=O)c3ccc4c(N)nn(C)c4c3)cc2[nH]1 [Example 60]       log10(IC50)                  2.52
 4  COCCn1cc(-c2ccc(C(=O)Nc3cc4[nH]c(CN5CCC[C@@H]5C)cc4cn3)nc2)cn1 [Example 71]       log10(IC50)                  3.02
 5  C[C@H]1CCCN1Cc1cc2cnc(NC(=O)c3ccc(-n4ccnc4)cc3)cc2[nH]1 [Example 54]       log10(IC50)                  2.33
 6  COCCCCn1ncc2cc(C(=O)Nc3cc4[nH]c(CN5CCC[C@@H]5C)cc4cn3)ccc21 [compound 28]       log10(IC50)                  2.62
 7  C[C@H]1CCCN1Cc1cc2cnc(NC(=O)c3ccc4c(NCC(F)F)nn(C)c4c3)cc2[nH]1 [Example 95]       log10(IC50)                  2.20
 8  C[C@H]1CCCN1Cc1cc2cnc(NC(=O)c3ccc4c(C5CC5)nn(C)c4c3)cc2[nH]1 [Example 56]       log10(IC50)                  1.89
 9  C[C@H]1CCCN1Cc1cc2cnc(NC(=O)c3ccc4c(c3)n(C)c(=O)n4C)cc2[nH]1 [Example 90]       log10(IC50)                  2.10
10  Cc1cnc(-c2ccc(C(=O)Nc3cc4[nH]c(CN5CCC[C@@H]5C)cc4cn3)c(F)c2)nc1 [Example 14]       log10(IC50)                  3.15
11  C[C@H]1CCCN1Cc1cc2cnc(NC(=O)c3ccc4nc(N)ccc4c3)cc2[nH]1 [Example 58]       log10(IC50)                  2.47
12  Cc1ccc2cc(C(=O)Nc3cc4[nH]c(CN5CCC[C@@H]5C)cc4cn3)ccc2n1 [Example 22]       log10(IC50)                  2.14
13  COCC#CCn1ncc2cc(C(=O)Nc3cc4[nH]c(CN5CCC[C@@H]5C)cc4cn3)ccc21 [Example 27]       log10(IC50)                  2.41
14  Cc1nc2ccc(C(=O)Nc3cc4[nH]c(CN5CCC[C@@H]5C)cc4cn3)cc2o1 [Example 4]       log10(IC50)                  2.76
15  Cn1ncc2cc(C(=O)Nc3cc4[nH]c(CN5CC6(COC6)C5)cc4cn3)ccc21 [Example 46]       log10(IC50)                  2.49
16  Cc1n[nH]c2cc(C(=O)Nc3cc4[nH]c(CN5CCC[C@@H]5C)cc4cn3)ccc12 [Example 67]       log10(IC50)                  2.10
17  COCCn1cc(-c2ccc(C(=O)Nc3cc4[nH]c(CN5CCC[C@@H]5C)cc4cn3)cc2)cn1 [Example 51]       log10(IC50)                  2.27
18  C[C@H]1CCCN1Cc1cc2cnc(NC(=O)c3ccc4onc(C5CC5)c4c3)cc2[nH]1 [Example 53]       log10(IC50)                  2.62
19  CC(c1ccncc1)c1ccc(C(=O)Nc2cc3[nH]c(CN4CCC[C@@H]4C)cc3cn2)cc1 (some centres unmarked) [Example 29]       log10(IC50)                  2.72
